Where do these numbers come from? They come from patent US5578601A.

- Assay target: bradykinin B2 receptor (Homo sapiens, UniProt P30411)
- Construct: These cells contain the bradykinin B2 receptor as previously described; endogenous in cells; host or cells: human IMR-90 fetal lung fibroblasts
- Sequence (P30411 whole entry): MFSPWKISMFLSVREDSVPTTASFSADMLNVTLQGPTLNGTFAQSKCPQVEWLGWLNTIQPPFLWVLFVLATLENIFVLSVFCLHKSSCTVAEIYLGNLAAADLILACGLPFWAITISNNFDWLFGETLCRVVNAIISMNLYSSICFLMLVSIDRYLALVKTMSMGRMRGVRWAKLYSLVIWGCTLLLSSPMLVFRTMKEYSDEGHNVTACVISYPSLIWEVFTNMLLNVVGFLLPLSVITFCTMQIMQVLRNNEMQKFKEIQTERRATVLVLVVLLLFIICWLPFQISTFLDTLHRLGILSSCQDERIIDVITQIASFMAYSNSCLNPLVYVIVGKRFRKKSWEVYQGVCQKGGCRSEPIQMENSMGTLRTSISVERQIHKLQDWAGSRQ
- Assay text: [3H]-bradykinin radioligand competitive binding to human IMR-90 fetal lung fibroblasts (bradykinin B2 receptor)
- Reported conditions: human IMR-90 cells, 2 h, 4° C, pH 7.4, mean values from 2-3 experiments, read-out: IMR 90 Ki
pKi: −log10 of the molar value. Counter-ions that a name gives are not always drawn.

Compound	pKi
CCCC[P+](CCCC)(CCCC)Cc1cccc(NC(=O)C(Cc2ccc3ccccc3c2)N=C(NC2CCCCC2)NC2CCCCC2)c1 (stereo not drawn) [Example 17, monohydrochloride]	5.52
CCCC[P+](CCCC)(CCCC)Cc1ccc(NC(=O)C(Cc2ccc3ccccc3c2)N=C(NCCC)NCCCc2ccccc2)cc1 (stereo not drawn) [Example 10, monohydrochloride]	5.71
O=C(NCc1nc2ccccc2[nH]1)C(Cc1ccc2ccccc2c1)N=C(NC1CCCCC1)NC1CCCCC1 (stereo not drawn) [Example 25, monohydrochloride]	5.28

----------
- Assay target: bradykinin B2 receptor (Homo sapiens, UniProt P30411)
- Construct: These cells contain the bradykinin B2 receptor as previously described; endogenous in cells; host or cells: human IMR-90 fetal lung fibroblasts
- Assay text: [3H]-bradykinin radioligand competitive binding to human IMR-90 fetal lung fibroblasts (bradykinin B2 receptor)
- Reported conditions: human IMR-90 cells, 2 h, 4° C, pH 7.4, mean values from 2-3 experiments, read-out: IMR 90 Ki
Structures can show the parent of a compound that is named as a salt.
# Ki annotations

Compound	Ki, nM
CCCC[P+](CCCC)(CCCC)Cc1ccc(NC(=O)C(Cc2ccc(C(=O)c3ccccc3)cc2)NC(=NC2CCCCC2)NC2CCCCC2)cc1 (stereo not drawn) [Example 3, monohydrochloride]	5800
O=C(Nc1cccc2cnccc12)C(Cc1ccc2ccccc2c1)N=C(NC1CCCCC1)NC1CCCCC1 (stereo not drawn) [Example 24, monohydrochloride]	2540
CCCC[P+](CCCC)(CCCC)Cc1ccc(NC(=O)C(Cc2csc3ccccc23)N=C(NC2CCCCC2)NC2CCCCC2)cc1 (stereo not drawn) [Example 13, monohydrochloride]	430
